Reference for the values: patent US20230242552A1

tested on: NCI-H358 (KRAS G12C mutation); experiment: Proliferation inhibition measured by CTG, NCI-H358; assay type: cell-based, human; details: Homo sapiens, NCI-H358, 120 h, CellTiter Glo, 120 hours incubation
reported_endpoint: IC50

Guide cases for IC50, answers given:
compound	measured_result
C[C@@H]1Cc2cncc(F)c2CN1c1nc(OC[C@@H]2CCCN2C)nc2c1CCN(c1cccc3cccnc13)C2 [Compound 32]	≤ 1000 nM
CN1CCC[C@H]1COc1nc2c(c(N3CCc4cnccc4C3)n1)CCN(c1cccc3cccc(Cl)c13)C2 [Compound 1]	≤ 1000 nM
C[C@H]1Cc2cncc(F)c2CN1c1nc(OC[C@@H]2CCCN2C)nc2c1CCN(c1cccc3cccc(F)c13)C2 [Compound 15]	≤ 1000 nM
C[C@H]1Cc2cncc(F)c2CN1c1nc(OC[C@@H]2CCCN2C)nc2cc(-c3cccc4cccc(Cl)c34)ccc12 [Compound 20]	1000 to 10000 nM

## Task Returns the measured IC50 for the input compound. Input: CC1Cc2cncc(F)c2CN1c1nc(OC[C@@H]2CCCCN2C)nc2c1CCN(c1cccc3cccc(Cl)c13)C2 (stereo partly shown) [Compound 9-1]
## Result ≤ 1000 nM

## Task Also C[C@@H]1Cc2cncc(F)c2CN1c1nc(OC[C@H]2CCCN2C)nc2c1CCN(c1cccc3cccc(F)c13)C2 [Compound 31] ?
## Result ≤ 1000 nM

## Task And then C[C@H]1Cc2cncc(F)c2CN1c1nc(OC[C@H]2CCCCN2C)nc2c1CCN(c1cccc3cccc(F)c13)C2 [Compound 23] , what is it?
## Result 1000 to 10000 nM

----------
Entries and their IC50
system: NCI-H358 (KRAS G12C mutation); test: Proliferation inhibition measured by CTG, NCI-H358; type: cell-based, human; details: Homo sapiens, NCI-H358, 120 h, CellTiter Glo, 120 hours incubation

Sample records with IC50:
molecule	reported_endpoint	measured_result
C[C@@H]1Cc2cncc(F)c2CN1c1nc(OC[C@@H]2CCCCN2C)nc2c1CCN(c1cccc3cccc(F)c13)C2	IC50	≤ 1000 nM
C#Cc1c(F)ccc2cc(O)cc(N3CCc4c(nc(OC[C@@H]5CCCN5C)nc4N4Cc5c(F)cncc5CC4C)C3)c12 (some centres unmarked)	IC50	1000 to 10000 nM
C[C@@H](CN(C)C)Oc1nc2c(c(N3Cc4c(F)cncc4C[C@@H]3C)n1)CCN(c1cccc3cccc(F)c13)C2	IC50	1000 to 10000 nM
C[C@H]1Cc2cncc(F)c2CN1c1nc(OC[C@@H]2CCCCN2C)nc2c1CCN(c1cccc3cccc(F)c13)C2	IC50	≤ 1000 nM

Here is another molecule to look at.
## Task What value of IC50 has been recorded for this entry: CC1Cc2cnccc2CN1c1nc(OC[C@@H]2CCCN2C)nc2c1CCN(c1cccc3cccc(Cl)c13)C2 (some centres unmarked)
## Result 1000 to 10000 nM

----------
test system: SW480 (colon cancer cell lines with KRAS G12V mutation); test: Proliferation inhibition measured by CTG, SW480; type: cell-based; conditions: Homo sapiens, SW480, 120 h, CellTiter Glo, 120 hours incubation
reported_endpoint: IC50

Known results for compounds:
compound	measured_result
CC1Cc2cnccc2CN1c1nc(OC[C@@H]2CCCN2C)nc2c1CCN(c1cc(O)cc3cccc(Cl)c13)C2 (stereo partly shown)	≤ 1000 nM
C[C@H]1Cc2cncc(F)c2CN1c1nc(OC[C@@H]2CCCN2C)nc2c1CCN(c1ccnc3ccccc13)C2	1000 to 10000 nM
C[C@H]1Cc2cncc(F)c2CN1c1nc(OC[C@H]2CCCCN2C)nc2c1CCN(c1cccc3cccc(F)c13)C2	1000 to 10000 nM
C[C@H]1Cc2cncc(F)c2CN1c1nc(OC[C@H]2CCCN2C)nc2c1CCN(c1cccc3cccc(F)c13)C2	≤ 1000 nM
C[C@@H]1Cc2cncc(F)c2CN1c1nc(OC[C@@H]2CCCN2C)nc2c1CCN(c1cccc3cccnc13)C2	≤ 1000 nM

## Task Field request: IC50 | item: `C[C@H]1Cc2cncc(F)c2CN1c1nc(OC[C@@H]2CCCN2C)nc2c1CCN(c1cccc3cnccc13)C2`
## Result 1000 to 10000 nM

## Task Thanks! And `C[C@H]1Cc2cncc(F)c2CN1c1nc(OC[C@@H]2CCCN2C)nc2c1CCN(c1cccc3ncccc13)C2` ?
## Result 1000 to 10000 nM
